Assay: label from the status in PepcDB records

{"SEQUENCE INPUT": "MVVANDLSSKILPRVLIVSRRTLRKNKYVDFVGEYHLDLIVSSGAVPVIVPRVNGIHSMLQSFEPIHGVLLCEGEDVDPSLYADDELSDLSPEDMEEIKKAHAEDMTIDREKDSIELTLARLCLERNIPFLGICRGSQILNVAAGGTLYQDIDKELGTTMTTTNHIDYDNYDGHRHEARIVEETPLHKLFEEMEIMVNSYHHQGVKRLAQRFVPMAYAPDGLIEGFYDPNRYDPKEGQFLMGLQFHPERMRLPGSDEFDYPGCALVYQEFVKAVIAFQKKQVNATQVEMKRKTTTLVKSFSQAEFLEVRDSFVLHTYRLYVLPLNIGFSDMAE", "protein production": "failed"}
{"SEQUENCE INPUT": "MLSFIIKRILWAIPTLFGVSIIVFMMVHLVPGDPALVILGEKANQAAIDALREQFGLNKPLIEQYFFFINNVLHGNFGTSIMTGEPVMHEFWQRFPATVELALIALFMALVLGISVGVLAAIKRYSVFDYSSMTFALAGISMPVFWLGLMLIYIFSVQLGWLPVFGRLSDVYYLDGPTGLYLIDSLIARDYGAFMDTIKHLILPSIVLATVSTAVIARMTRASMAEVSKEDYVRTAKAKGCSSFRVIFVHTLRNALIPVTTIAGLMLAGLLGGSMITETVFSWPGIGKWIVNALNQRDFPIIQSMSLIIAMMYIGANLLVDILYAFIDPRIRLS", "protein production": "failed"}

---

Assay: label from the status in PepcDB records
ASSAY ENDPOINT: protein production

{"SEQUENCE INPUT": "MMEDDGQPRTLYVGNLSRDVTEVLILQLFSQIGPCKSCKMITEHTSNDPYCFVEFYEHRDAAAALAAMNGRKILGKEVKVNWATTPSSQK", "OBSERVED": "not failed"}
{"SEQUENCE INPUT": "MNFPISTIRIGGWVVVAKNPDDIVAKFYFAKKKLIWEFLFGEPETNTLRLKRKIEIQWNDVSSFEESISSRDETGILKIELKKRPTFFIETNPQAGKHTQWKQLDHDFTGDHASNYRRHTLHFPPGVLQKNLEKLVTDSFWSKLYEVPFPVHESRYFDSGFENNSSRNSHSHTVGFNVNNGPQHHFSQGIGGVGVGEGNFSMANGGWQRNSYSPVNSLNYNTANEFFGMQATPPSSQVVNEHYNTQNDFTGSQFGYHMNQDEIQKILESQAYAVPDTQTKLMSSAMNNVPKYPQAGSCLESMLFWYEHRRRFQQ", "OBSERVED": "failed"}
{"SEQUENCE INPUT": "MTAIPLTFYLGLAALLFSIGLYGVMTHKSGIRMIMCIELMLNSANLNLVAFSSYTDTLNGQVFAIFSIALAAAEAAVGFAIFMAIYRMHDKINLDELNILRW", "OBSERVED": "failed"}
{"SEQUENCE INPUT": "MDRIIEKLDHGWWVVSHEQKLWLPKGELPYGERANFDLVGQRALQIGEWQGEPVWLVQQQRRHDMGSVRQVIDLDVGLFQLAGRGVQLAEFYRSHKYCGYCGHEMYPSKTEWAMLCSHCRERYYPQIAPCIIVAIRRDDSILLAQHTRHRNGVHTVLAGFVEVGETLEQAVAREVMEESGIKVKNLRYVTSQPWPFPQSLMTAFMAEYDSGDIVIDPKELLEANWYRYDDLPLLPPPGTVARRLIEDTVAMCRAEYE", "OBSERVED": "not failed"}

---

Assay: label from the status in PepcDB records
ASSAY ENDPOINT: protein production

Past entries and their recorded results:
{"SEQUENCE INPUT": "MAPIFLEYKVVHDNITYYIIYVFIYNLSLKLVTMYTINPSSHTILNYNVSLEPEQIFSNITGVSTYYSLDGKKILAYEDNNGSIIVAYNGLILKKASNNSVRYLIAANYPGIDNSKFPSLYKLAEISIFDSNIRVLVLGVLLTILSSFILKVMVGRYDKVR", "protein production": "failed"}
{"SEQUENCE INPUT": "MFERLPVPLSRHERAGPPMPEIGPYTLHTVDTGRFGLDGGAMFGIVPKPLWSQRIEPDEQNRIPLSMRCLLLIGDGRVVLIDTGIGDTFEDTKFQDIFAVDHSGATLEGSLAAHGVAPVDVTDVVLTHLHFDHAGGSTRRIDGEPAVAFPNATYHVQRRHWNWAADPNPKEEQSFRSDTFAPIEEAGQLNLVEGETTLLPHVDVSLVHGHTEAQQTVTVRDDETTLVYVADLLPTTHHLSPAWTMAYDVRPLRTIEEKGEFLEQAADSEWKLFFEHDPEVAVADVERTDRGVQVVNERSLDAL", "protein production": "failed"}
{"SEQUENCE INPUT": "MQAFRAPSLATIDDVCGTRADGYDGAPLRSIPDFAVIVPMHNEEASVETLVAEIVTACQPVGQFEIVVVDDASSDRTVNAVLSLGDRYPMLRLVRHDRQGGQSAAIHSGVQAARAPVICMLDGDGQNPPDNLPALLAPLLSATATSRLGLVAGQRVGRRDTLGKRLSSRFANGLRARILKDGTRDTGCGLKAFRRDAYLALPYFDHHHRYFPALFNRDGWQVAHVDVTHRARLHGNSHYTNIGRALVGIHDLIGVVWLLRRRKRSSWAETFKTETSPLEHHHHHH", "protein production": "not failed"}
{"SEQUENCE INPUT": "MIPIVDSRIGAYLDGLLPEADPVVAAMEQIARERNIPIVDRQTGRLLYLLARIKQPQLVVVPGDGLGCASWWFARAISISSRVVMIDPDRDNVEHARRMLHDNGLIDRVELQVGDPLGIAAGQRDIDILFMDCDVFNGADVLERMNRCLAKNALLIAVNALRRGSVAESHEDPETAALREFNHHLSRRRDFFTTIVPVGNGVLLGYRLS", "protein production": "not failed"}
{"SEQUENCE INPUT": "MVNDIKKTALAVVTALITAVSAQLSFKIGPVPYTMQNFGVMLSGFLLGPYYGLLSMAIYLALIAFSLPIAAGGGGLGVLIGPTAGFLYGFLISSFLAGVFRRAIWREGSRREVLMLWLSTLVASMPIYLLGFFVFYNFAMIDEKLLIRSESAVRAFNLSFSSPTMVIFAATVLIFLPQDFFVDHLLAVLVFRYVHRMLNERGVEVD", "protein production": "failed"}

Could you now consider this next sequence?
If you can, please state the reported protein production value of `MKLSSNNAETMESLRSERNQYRILVDITNSVLAHLDMDGLISEVSKEIHRFFGLNHISLMLCRTSSQNSHEGILYSSRYQTGKSVIRQQRKFSSANNKAEEIIHQNKPVLIDINKEDQDDVLIKRLVKQNMQTALLLPLAFNRKPLGLLILAHEISSVFTEETCQLLQQIAARIGIAIENAAAYEEITHLKDS` . failed

---

Test: label from the status in PepcDB records

{"SEQUENCE INPUT": "GRKVGFRKGPRPGAGPREGGFRNDGPRGEGGYRNDGPRGEGGYRNDGPRGEGPRNEGPRGEGYRNDGPRGEGFRGPRFNNGPSNGYENRQDNNRFGEKRRSAQKPLKVDDEAQFPTLC", "protein production": "failed"}
{"SEQUENCE INPUT": "MAALLGIVSPVTFTGKHPVNSRSRRRTVVKCSNERRILFNRIAPVYDNLNDLLSLGQHRIWKNMAVSWSGAKKGDYVLDLCCGSGDLAFLLSEKVGSTGKVMGLDFSSEQLAVAATRQSLKARSCYKCIEWIEGDAIDLPFDDCEFDAVTMGYGLRNVVDRLRAMKEMYRVLKPGSRVSILDFNKSNQSVTTFMQGWMIDNVVVPVATVYDLAKEYEYLKYSINGYLTGEELETLALEAGFSSACHYEISGGFMGNLVAMR", "protein production": "failed"}
{"SEQUENCE INPUT": "MFSSSYSNLPPLPHRLFLLLTVIWAGSLWTIGYLVAPTLFSVLPSRETAGMIAGHLFRYEAILGMTVGVLQLVLCNVLIRRGAERYRSLRWIVLTMLVCVLAGYFGVQPFMEGLKVKAQALNLGVSESPYKAEFGMLHGVSSVIYLVQSVLALVLVWRASAPR", "protein production": "failed"}

---

Assay: label from the status in PepcDB records
ASSAY ENDPOINT: protein production

{"SEQUENCE INPUT": "VPGILMCEIFIRANQRSYSVQARSLRLHGVATSVRLEQLFWDVLEEIAARDGMRVTQLIERLYDELVQYRGEAANFTSFLRVCCLRYQVLQAEGRIPADATVPIRSLDAQAVLRGLPANLYDSR", "OBSERVED": "not failed"}
{"SEQUENCE INPUT": "MSEEKNLVINANDSLGEIVIAPEVIEVIIGIAASKVEGVYGMRGTFANNVNELLGRAAHGKGVYLRTEEEGLKVDIYCYLNYGVSVPKVALEMQDRVKQQVLFMTDIDLVEVNIHVVAVVPEKIPQPDLNELFPEDEDGEENELEHHHHHH", "OBSERVED": "not failed"}
{"SEQUENCE INPUT": "MKVNKFITIYKDIAQQIEGGRWKAEEILPSEHELTAQYGTSRETVRKALHMLAQNGYIQKIRGKGSVVLNREKMQFPVSGLVSFKELAQTLGKETKTTVHKFGLEPPSELIQKQLRANLDDDIWEVIRSRKIDGEHVILDKDYFFRKHVPHLTKEICENSIYEYIEGELGLSISYAQKEIVAEPCTDEDRELLDLRGYDHMVVVRNYVFLEDTSLFQYTESRHRLDKFRFVDFARRGK", "OBSERVED": "not failed"}
